Assay: Stability of MTI-101 in plasma (dog)
Type: in vitro ADME
Conditions: room temperature, read-out: Stability - 24 Hour Room Temperature
Numbered stars: 1 amine (or outer) side, 2 acyl side, 3 side chain; on linkers, the order of the positions; unused ones are H or OH. Bridge positions count the residues as written; N and C are the ends. Square brackets hold non-standard residues; d marks the D form. Peptide text beside a SMILES is read from it. * marks the point of attachment. dProlinol(O-CH2CO) = O=C(COC[C@H]1CCCN1[*:1])[*:2]; N(2-Aminoethyl)Gly = O=C(CN(CCN[*:3])[*:1])[*:2]; Nle = CCCC[C@H](N)C(=O)O; Ms = CS(=O)(=O)*
observed property: remaining at 24 h (%)
Entry rule: numbers only, all in %.

Given the entry CCCC[C@@H]1NC(=O)CN(S(C)(=O)=O)CCNC(=O)[C@H](CCCCN)NC(=O)[C@H](CC(C)C)NC(=O)[C@H](CCCCN)NC(=O)[C@H](CC(C)C)NC(=O)[C@H](CCCCN)NC(=O)COC[C@H]2CCCN2C(=O)[C@H](Cc2c[nH]c3ccccc23)NC(=O)[C@H](C)NC(=O)[C@H](C(C)C)NC(=O)[C@H](C(C)C)NC1=O [MTI-101] (Ms-[N(2-Aminoethyl)Gly][Nle]VVAW[dProlinol(O-CH2CO)]KLKLK; lactam 1-C) , report its measured remaining at 24 h.
67

Attribution: patent US20140322227A1
